molecular target: IDO1 (Mus musculus); construct: LPS-injected mice have been used as models to study IDO1 expression and activity; from tissue; host or cells: whole animal: LPS-injected C57BL/6 mice, with IDO1 induced in a variety of tissues; assay: Reduction of LPS induced plasma kynurenine levels in C57BL/6 mice; assay type: in vivo; settings: LPS-injected (6 mg/kg i.p.) C57BL/6 mice; test compound given orally 20 h after LPS; plasma KYN by LC/MS/MS at 2 hr post dosing
Measured property: percentage of decrease of kynurenine level at two hours (%)
Expressed in %, but write only the number.

The following compounds have reported results that may help.
Form: compound = Cc1cc(-c2nccc(/C(C#N)=N/c3ccc(F)cc3F)c2O)ccn1 ; percentage of decrease of kynurenine level at two hours = 64

Form: compound = Cc1cc(-c2nccc(/C(C#N)=N/c3cccc(Cl)c3)c2O)ccn1 ; percentage of decrease of kynurenine level at two hours = 79

Read the next record carefully.
Form: compound = N#C/C(=N\c1cccc(Cl)c1)c1ccnc(-c2ccncc2)c1O ; percentage of decrease of kynurenine level at two hours = 87

* * *

target: IDO1 (Mus musculus, UniProt P28776); construct: LPS-injected mice have been used as models to study IDO1 expression and activity; from tissue; host or cells: whole animal: LPS-injected C57BL/6 mice, with IDO1 induced in a variety of tissues; assay: Reduction of LPS induced plasma kynurenine levels in C57BL/6 mice; type: in vivo; conditions: LPS-injected (6 mg/kg i.p.) C57BL/6 mice; test compound given orally 20 h after LPS; plasma KYN by LC/MS/MS at 2 hr post dosing
Sequence (P28776 whole entry): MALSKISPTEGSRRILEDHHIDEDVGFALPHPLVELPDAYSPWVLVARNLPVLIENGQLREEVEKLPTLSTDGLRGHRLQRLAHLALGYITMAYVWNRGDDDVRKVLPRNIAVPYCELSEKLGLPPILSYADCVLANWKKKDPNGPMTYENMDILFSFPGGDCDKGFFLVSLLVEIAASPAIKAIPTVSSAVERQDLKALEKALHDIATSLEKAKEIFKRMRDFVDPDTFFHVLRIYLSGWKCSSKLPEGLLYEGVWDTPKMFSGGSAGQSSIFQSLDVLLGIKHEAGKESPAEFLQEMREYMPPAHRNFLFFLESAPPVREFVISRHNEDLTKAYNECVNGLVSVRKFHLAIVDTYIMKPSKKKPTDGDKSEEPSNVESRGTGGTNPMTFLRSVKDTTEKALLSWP
Please assign 0 whenever percentage of decrease of kynurenine level at two hours is at or above 70%, and 1 whenever it is below.

Q: Find out if reported percentage of decrease of kynurenine level at two hours for N#C/C(=N\c1ccc(F)c(Cl)c1)c1cc(F)ncc1O [Compound 06] is less than 70%
Result: 0

Q: Find out if reported percentage of decrease of kynurenine level at two hours for Cc1cc(-c2nc(C)cc(/C(C#N)=N/c3ccc(F)c(Cl)c3)c2O)ccn1 [Compound 26] is less than 70%
Result: 1

Q: Find out if reported percentage of decrease of kynurenine level at two hours for N#C/C(=N\c1ccc(F)c(Cl)c1)c1ccnc(-c2cc(F)nc(F)c2)c1O [Compound 21] is less than 70%
Result: 1

Q: Find out if reported percentage of decrease of kynurenine level at two hours for N#C/C(=N\c1cccc(C(F)(F)F)c1)c1ccncc1O [Compound 34] is less than 70%
Result: 1

Q: Find out if reported percentage of decrease of kynurenine level at two hours for CNC(=O)c1cc(-c2nccc(/C(C#N)=N/c3cccc(Cl)c3)c2O)ccn1 [Compound 30] is less than 70%
Result: 1

Q: Find out if reported percentage of decrease of kynurenine level at two hours for N#C/C(=N\c1ccc(F)c(F)c1)c1ccnc(-c2ccncc2)c1O [Compound 08] is less than 70%
Result: 0

***
Q: Find out if reported percentage of decrease of kynurenine level at two hours for Cc1cc(-c2nccc(/C(C#N)=N/c3ccc(F)c(F)c3)c2O)ccn1 [Compound 10] is less than 70%
Result: 0

* * *

A collection of compounds and their measured percentage of decrease of kynurenine level at two hours
target: IDO1 (Mus musculus, UniProt P28776); construct: LPS-injected mice have been used as models to study IDO1 expression and activity; from tissue; host or cells: whole animal: LPS-injected C57BL/6 mice, with IDO1 induced in a variety of tissues; test: Reduction of LPS induced plasma kynurenine levels in C57BL/6 mice; format: in vivo; details: LPS-injected (6 mg/kg i.p.) C57BL/6 mice; test compound given orally 20 h after LPS; plasma KYN by LC/MS/MS at 2 hr post dosing
I'd appreciate it if you included the unit after the number.

The following compounds have reported results that may help.
Form: compound = CNC(=O)c1cc(-c2nccc(/C(C#N)=N/c3ccc(F)c(C(F)(F)F)c3)c2O)ccn1 ; percentage of decrease of kynurenine level at two hours = 43%

Form: compound = N#C/C(=N\c1cccc(Cl)c1)c1ccncc1O ; percentage of decrease of kynurenine level at two hours = 80%

Form: compound = N#C/C(=N\c1ccc(F)c(C(F)(F)F)c1)c1ccnc(-c2ccncc2)c1O ; percentage of decrease of kynurenine level at two hours = 77%

Form: compound = N#C/C(=N\c1ccc(F)c(Cl)c1)c1ccnc(-c2ccncc2)c1O ; percentage of decrease of kynurenine level at two hours = 77%

Form: compound = N#C/C(=N\c1ccc(F)c(Cl)c1)c1ccnc(-c2cccnc2)c1O ; percentage of decrease of kynurenine level at two hours = 77%

***
Form: compound = Cc1cc(-c2nccc(/C(C#N)=N/c3ccc(F)c(Cl)c3)c2O)cc(C)n1 ; percentage of decrease of kynurenine level at two hours = 36%

Form: compound = N#C/C(=N\c1cccc(C(F)(F)F)c1)c1ccnc(-c2ccccc2)c1O ; percentage of decrease of kynurenine level at two hours = 32%

* * *

biological target: IDO1 (Mus musculus, UniProt P28776); construct: LPS-injected mice have been used as models to study IDO1 expression and activity; from tissue; host or cells: whole animal: LPS-injected C57BL/6 mice, with IDO1 induced in a variety of tissues; assay: Reduction of LPS induced plasma kynurenine levels in C57BL/6 mice; format: in vivo; conditions: LPS-injected (6 mg/kg i.p.) C57BL/6 mice; test compound given orally 20 h after LPS; plasma KYN by LC/MS/MS at 2 hr post dosing
A collection of compounds and their measured percentage of decrease of kynurenine level at two hours
Expressed in %, but write only the number.

Form: compound = Cc1cc(-c2nccc(/C(C#N)=N/c3ccc(F)cc3)c2O)ccn1 ; percentage of decrease of kynurenine level at two hours = 82

Form: compound = CNC(=O)c1cc(-c2nccc(/C(C#N)=N/c3ccc(F)c(F)c3)c2O)ccn1 ; percentage of decrease of kynurenine level at two hours = 68

Form: compound = COc1cc(-c2nccc(/C(C#N)=N/c3ccc(F)c(Cl)c3)c2O)ccn1 ; percentage of decrease of kynurenine level at two hours = 47

Form: compound = N#C/C(=N\c1ccc(F)c(Cl)c1)c1ccnc(-c2ccc3c(c2)OCO3)c1O ; percentage of decrease of kynurenine level at two hours = 10

Form: compound = Cc1nccc(/C(C#N)=N/c2ccc(F)c(Cl)c2)c1O ; percentage of decrease of kynurenine level at two hours = 53

Form: compound = N#C/C(=N\c1ccccc1Cl)c1ccnc(-c2ccncc2)c1O ; percentage of decrease of kynurenine level at two hours = 46

Form: compound = N#C/C(=N\c1ccc(F)c(Cl)c1)c1ccnc(Nc2ccccc2)c1O ; percentage of decrease of kynurenine level at two hours = 15

Form: compound = N#C/C(=N\c1cccc(F)c1)c1ccnc(-c2ccncc2)c1O ; percentage of decrease of kynurenine level at two hours = 81

Form: compound = N#C/C(=N\c1cccc(F)c1)c1ccncc1O ; percentage of decrease of kynurenine level at two hours = 74

Form: compound = Cc1cc(-c2nccc(/C(C#N)=N/c3cccc(F)c3)c2O)ccn1 ; percentage of decrease of kynurenine level at two hours = 75

Form: compound = N#C/C(=N\c1cccc(C(F)(F)F)c1)c1ccnc(-c2ccncc2)c1O ; percentage of decrease of kynurenine level at two hours = 70

Form: compound = N#C/C(=N\c1ccc(F)cc1)c1ccnc(-c2ccnc(F)c2)c1O ; percentage of decrease of kynurenine level at two hours = 69

Form: compound = N#C/C(=N\c1ccc(F)c(Cl)c1)c1ccncc1O ; percentage of decrease of kynurenine level at two hours = 73

Form: compound = COc1cc(/C(C#N)=N/c2ccc(F)c(Cl)c2)c(O)cn1 ; percentage of decrease of kynurenine level at two hours = 18

Form: compound = Cc1cc(-c2nccc(/C(C#N)=N/c3cccc(C(F)(F)F)c3)c2O)ccn1 ; percentage of decrease of kynurenine level at two hours = 69

Form: compound = N#C/C(=N\c1ccc(F)c(F)c1)c1ccncc1O ; percentage of decrease of kynurenine level at two hours = 79

* * *

target: IDO1 (Mus musculus, UniProt P28776); construct: LPS-injected mice have been used as models to study IDO1 expression and activity; from tissue; host or cells: whole animal: LPS-injected C57BL/6 mice, with IDO1 induced in a variety of tissues; assay: Reduction of LPS induced plasma kynurenine levels in C57BL/6 mice; type: in vivo; conditions: LPS-injected (6 mg/kg i.p.) C57BL/6 mice; test compound given orally 20 h after LPS; plasma KYN by LC/MS/MS at 2 hr post dosing
A collection of compounds and their measured percentage of decrease of kynurenine level at two hours
Expressed in %, but write only the number.

The following compounds have reported results that may help.
Form: compound = N#C/C(=N\c1ccc(F)c(C(F)(F)F)c1)c1ccnc(C#N)c1O ; percentage of decrease of kynurenine level at two hours = 25

Form: compound = CNC(=O)c1cc(-c2nccc(/C(C#N)=N/c3ccc(F)c(Cl)c3)c2O)ccn1 ; percentage of decrease of kynurenine level at two hours = 43

Form: compound = Cc1cc(-c2nccc(/C(C#N)=N/c3ccc(F)c(Cl)c3)c2O)ccn1 ; percentage of decrease of kynurenine level at two hours = 71

Form: compound = N#C/C(=N\c1ccc(F)c(Cl)c1)c1ccnc(Br)c1O ; percentage of decrease of kynurenine level at two hours = 38

Form: compound = N#C/C(=N\c1ccc(F)c(Cl)c1)c1ccnc(-c2ccccc2)c1O ; percentage of decrease of kynurenine level at two hours = 46

***
Form: compound = N#C/C(=N\c1ccc(F)c(C(F)(F)F)c1)c1ccncc1O ; percentage of decrease of kynurenine level at two hours = 64

Form: compound = Cc1cc(-c2nccc(/C(C#N)=N/c3ccccc3Cl)c2O)ccn1 ; percentage of decrease of kynurenine level at two hours = 37

Form: compound = N#C/C(=N\c1ccc(F)c(Cl)c1)c1ccnc(C#N)c1O ; percentage of decrease of kynurenine level at two hours = 45

Form: compound = Cc1cc(-c2nccc(/C(C#N)=N/c3ccccc3)c2O)ccn1 ; percentage of decrease of kynurenine level at two hours = 81

Form: compound = Cc1cc(-c2nccc(/C(C#N)=N/c3ccc(F)c(C(F)(F)F)c3)c2O)ccn1 ; percentage of decrease of kynurenine level at two hours = 67

Form: compound = CNC(=O)c1cc(-c2nccc(/C(C#N)=N/c3ccc(F)cc3)c2O)ccn1 ; percentage of decrease of kynurenine level at two hours = 67
